Every entry's value here was drawn from PubChem BioAssay.

Test: binders of probe aFSTL3 on microarray, primary screen, stem cell growth factor project, biochemical, small-molecule microarray, fluorescence 635/667 (AID 1064);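 also: measures binding of the biotinylated anti-FSTL3 antibody to printed compounds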
Settings: higher = more signal
Threshold check on composite z-score: at or above 0.07 gives Fulfilled, strictly below gives Not fulfilled.

MOLECULE	CATEGORY
O=C1c2ccccc2[C@](Cc2ccccc2I)(C(=O)NCCN2CCOCC2)[C@H](c2ccc(CO)cc2)N1Cc1ccccc1C(F)(F)F	Not fulfilled
O=C1C2C=CC(C(O)c3ccccn3)N(Nc3ccc([N+](=O)[O-])cc3)C2C(=O)N1c1ccccc1 (configuration not stated)	Fulfilled
COc1c(C)cc(-c2cc3c(c(CCc4ccccc4)n2)[Si](C(C)C)(C(C)C)O[C@H]3c2ccccc2)cc1C	Not fulfilled
COCCOC(=O)N1C(=O)[C@@]2(c3cc(C#CCNC(N)=O)ccc31)[C@H](C(=O)Nc1nc3ccccc3s1)[C@H]1C(=O)O[C@H](c3ccccc3)[C@H](c3ccccc3)N1[C@@H]2c1ccc(O)cc1	Not fulfilled
COc1c(C)cc(-c2nc(-c3ccccc3)c3c(c2C)CO[Si]3(C(C)C)C(C)C)cc1C	Not fulfilled
O=C1C2C=CC(C(O)C3CCCCC3)N(Nc3ccccc3F)C2C(=O)N1c1ccccc1 (configuration not stated)	Fulfilled
COC(=O)[C@@]1(Cc2ccccc2)[C@H]2c3cc(C(=O)N(C)C)n(CCF)c3C[C@H]2CN1C(=O)c1ccccc1	Fulfilled
